These data points were gathered from paper PMC7323458.

Reported Kd values for the following binders.
# system name: T1, β-ketoacyl-ACP-synthase I (FabB) (E. coli, UniProt P0A953 1-406)
# T1 sequence: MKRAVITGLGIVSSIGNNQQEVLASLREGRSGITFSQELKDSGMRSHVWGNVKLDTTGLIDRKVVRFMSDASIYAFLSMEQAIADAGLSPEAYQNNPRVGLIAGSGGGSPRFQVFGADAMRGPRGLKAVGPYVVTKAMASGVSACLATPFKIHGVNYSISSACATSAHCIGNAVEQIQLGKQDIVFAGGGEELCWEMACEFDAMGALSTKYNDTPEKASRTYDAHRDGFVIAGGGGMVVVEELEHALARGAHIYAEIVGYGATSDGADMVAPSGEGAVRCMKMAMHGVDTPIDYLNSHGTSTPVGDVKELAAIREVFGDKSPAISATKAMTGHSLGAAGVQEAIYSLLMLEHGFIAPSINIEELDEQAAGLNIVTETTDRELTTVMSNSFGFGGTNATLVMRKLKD
# test details: NMR titration

Problem: Give the reported value of Kd for this record: wt C8-AcpP (octanoyl-AcpP) (natural protein, E. coli, amide-linked octanoyl (C8) pantetheine probe on the phosphopantetheine serine (S36); 15N, 2H labelled) MSTIEERVKKIIGEQLGVKQEEVTNNASFVEDLGADSLDTVELVMALEEEFDTEIPDEEAEKITTVQAAIDYINGHQA
Result: 37.6 µM

Problem: Give the reported value of Kd for this record: D38A C8-AcpP (natural protein, E. coli, amide-linked octanoyl (C8) pantetheine probe on the phosphopantetheine serine (S36); 15N, 2H labelled) MSTIEERVKKIIGEQLGVKQEEVTNNASFVEDLGADSLATVELVMALEEEFDTEIPDEEAEKITTVQAAIDYINGHQA
Result: 167 µM
